meta.source: ChEMBL document CHEMBL1145732

Endpoint: log10 Ki. System: Histamine H3 receptor (Homo sapiens, UniProt Q9Y5N1). Items follow.
Sequence (Q9Y5N1 whole entry): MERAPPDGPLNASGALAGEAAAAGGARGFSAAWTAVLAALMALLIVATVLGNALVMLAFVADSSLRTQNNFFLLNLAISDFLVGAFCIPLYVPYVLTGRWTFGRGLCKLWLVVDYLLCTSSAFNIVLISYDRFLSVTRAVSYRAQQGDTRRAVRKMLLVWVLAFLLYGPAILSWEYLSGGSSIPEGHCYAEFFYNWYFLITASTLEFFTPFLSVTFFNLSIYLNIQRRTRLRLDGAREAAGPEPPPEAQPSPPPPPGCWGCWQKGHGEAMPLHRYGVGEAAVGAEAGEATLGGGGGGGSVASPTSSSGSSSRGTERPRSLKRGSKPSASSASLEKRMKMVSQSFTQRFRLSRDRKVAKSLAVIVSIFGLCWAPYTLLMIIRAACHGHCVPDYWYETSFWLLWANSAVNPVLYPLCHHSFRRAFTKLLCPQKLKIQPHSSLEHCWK
Answers are given as log10 of Ki in nM.

Cc1c(-c2ccc(OCCCN3CCCCC3)cc2)cc2ccccn12 = 0.30

(Q) Which measured log10 Ki belongs to c1ccn2nc(-c3ccc(OCCCN4CCCCC4)cc3)cc2c1 , tested on Histamine H3 receptor (Homo sapiens, UniProt Q9Y5N1)?
(A) 1.04

(Q) Which measured log10 Ki belongs to c1ccc(-c2cc3ccccn3c2)c(OCCCN2CCCCC2)c1 , tested on Histamine H3 receptor (Homo sapiens, UniProt Q9Y5N1)?
(A) 2.37

(Q) Which measured log10 Ki belongs to c1cc(OCCCN2CCCCC2)cc(-c2cc3ccccn3c2)c1 , tested on Histamine H3 receptor (Homo sapiens, UniProt Q9Y5N1)?
(A) 2.49

(Q) Which measured log10 Ki belongs to CCc1c(-c2ccc(OCCCN3CCCCC3)cc2)cn2ccccc12 , tested on Histamine H3 receptor (Homo sapiens, UniProt Q9Y5N1)?
(A) 1.28

(Q) Which measured log10 Ki belongs to Cc1cc(OCCCN2CCCCC2)ccc1-c1cc2ccccn2c1 , tested on Histamine H3 receptor (Homo sapiens, UniProt Q9Y5N1)?
(A) 2.18

(Q) Which measured log10 Ki belongs to Cc1ccn2cc(-c3ccc(OCCCN4CCCCC4)cc3)cc2c1 , tested on Histamine H3 receptor (Homo sapiens, UniProt Q9Y5N1)?
(A) 1.60

(Q) Which measured log10 Ki belongs to Cc1cccc2cc(-c3ccc(OCCCN4CCCCC4)cc3)cn12 , tested on Histamine H3 receptor (Homo sapiens, UniProt Q9Y5N1)?
(A) 1.66
